# testedOn: Gi2 (Bos taurus)
# Construct: trimeric Gi2 (i.e., Gi2 αβγ) purified from bovine brain to near homogeneity; from tissue; host or cells: bovine brain
# assayInfo: GTPγS binding assay, peptide 14-induced Gi2 activation
# Assay type: biochemical, bovine
# assaySetup: 10 μM peptide variant, 10 nM Gi2, 30 μM peptide 14
Where no end group is shown, it is not given here.
quantityName: inhibition at 10 µM

Some sequences with known inhibition at 10 µM results, for comparison:
DAVTDVIIK [p9 variant, DAVTDVIIK] : ≥ 30%
DAVTAVIIKNNLKDC [A2 variant, DAVTAVIIKNNLKDC] : ≥ 80%
DAVTDVIIKNNLKD [del C variant, DAVTDVIIKNNLKD] : ≥ 30%

Items follow; give inhibition at 10 µM for each.
1. DAVTDVIIKANLKDC [A3 variant, DAVTDVIIKANLKDC]
2. AAVTDVIIKNNLKDC [A1 variant, AAVTDVIIKNNLKDC]
3. DAVTDVIIKNNLKAC [A5 variant, DAVTDVIIKNNLKAC]

Reply |
≥ 30%
≥ 30%
≥ 80%

---

# testedOn: Gi2 (Bos taurus, UniProt A7MBH9)
# Construct: trimeric Gi2 (i.e., Gi2 αβγ) purified from bovine brain to near homogeneity; from tissue; host or cells: bovine brain
# Sequence (A7MBH9 2-355 limits assumed): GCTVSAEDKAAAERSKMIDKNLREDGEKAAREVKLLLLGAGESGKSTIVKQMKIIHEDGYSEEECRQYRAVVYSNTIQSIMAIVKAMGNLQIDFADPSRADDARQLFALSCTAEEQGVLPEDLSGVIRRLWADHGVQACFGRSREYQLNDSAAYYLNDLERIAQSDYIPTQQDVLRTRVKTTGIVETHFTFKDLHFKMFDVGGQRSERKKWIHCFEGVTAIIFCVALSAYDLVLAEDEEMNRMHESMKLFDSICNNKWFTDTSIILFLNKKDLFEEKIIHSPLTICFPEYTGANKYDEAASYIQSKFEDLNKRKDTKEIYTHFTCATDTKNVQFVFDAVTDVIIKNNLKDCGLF
# Sequence (P62871 2-340 partner limits assumed): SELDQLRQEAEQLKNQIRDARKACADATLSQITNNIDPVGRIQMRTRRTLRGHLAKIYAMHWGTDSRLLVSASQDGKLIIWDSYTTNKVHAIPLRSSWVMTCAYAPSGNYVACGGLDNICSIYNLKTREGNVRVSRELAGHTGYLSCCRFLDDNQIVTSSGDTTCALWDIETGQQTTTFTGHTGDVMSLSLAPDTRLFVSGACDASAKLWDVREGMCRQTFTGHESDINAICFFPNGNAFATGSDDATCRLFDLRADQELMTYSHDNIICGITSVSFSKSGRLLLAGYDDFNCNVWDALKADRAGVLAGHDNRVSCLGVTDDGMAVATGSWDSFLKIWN
# Sequence (P63212 2-68 partner limits assumed): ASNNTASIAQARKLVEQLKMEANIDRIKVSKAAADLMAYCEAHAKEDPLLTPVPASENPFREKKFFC
# assayInfo: GTPγS binding, TrM-peptide 14-induced Gi2 activation in phospholipid vesicles
# Type: biochemical, bovine
# assaySetup: 0.3 nM Gi2 in phospholipid vesicles, 100 nM TrM-peptide 14; read-out: IC50, inhibition of TrM-peptide 14 stimulation of Gi2
Where no end group is shown, it is not given here.
quantityName: IC50 (µM)
One number for each entry, in µM.

Ask | GET IC50 where system = Gi2 (Bos taurus, UniProt A7MBH9) and item = DAVTDVIIKNNLKDC [ACGi2, DAVTDVIIKNNLKDC]
Reply | 3
